Biological target: PPARδ (Homo sapiens, UniProt Q03181)
Construct: PPARδ (aa 139 to 442)
Sequence (Q03181 139-441 limits assumed): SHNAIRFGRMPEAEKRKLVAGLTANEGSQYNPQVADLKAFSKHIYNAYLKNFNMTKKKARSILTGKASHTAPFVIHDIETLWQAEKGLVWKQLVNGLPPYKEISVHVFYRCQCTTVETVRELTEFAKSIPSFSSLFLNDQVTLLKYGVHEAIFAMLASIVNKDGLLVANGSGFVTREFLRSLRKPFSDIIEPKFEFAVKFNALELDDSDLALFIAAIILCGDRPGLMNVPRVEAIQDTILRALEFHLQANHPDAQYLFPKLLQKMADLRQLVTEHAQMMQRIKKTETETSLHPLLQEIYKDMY
Experiment: Radioligand binding assay (SPA), PPARδ receptor binding
Details: GST-PPARδ-LBD fusion protein
For each of the compounds below, state its IC50.
Provide only the numeric value, understood in nM.

Please report the recorded IC50 for Cc1nc(-c2ccc(C(F)(F)F)cc2)sc1CN(C)c1ccc(OCC(=O)O)c(F)c1 .
49.8

Please report the recorded IC50 for Cc1nc(-c2ccc(C(F)(F)F)cc2)sc1CN(C)c1ccc(OCC(=O)O)c(C(F)(F)F)c1 .
16.2

Please report the recorded IC50 for COCCCc1cc(N(C)Cc2sc(-c3ccc(C(F)(F)F)cc3)nc2C)ccc1OCC(=O)O .
34

Please report the recorded IC50 for Cc1cc(N(C)Cc2sc(-c3ccc(C(F)(F)F)cc3)nc2C)ccc1OCC(=O)O .
17.7

Please report the recorded IC50 for CCc1cc(N(C)Cc2sc(-c3ccc(C(F)(F)F)cc3)nc2C)ccc1OCC(=O)O .
10.1

Please report the recorded IC50 for Cc1nc(-c2ccc(C(F)(F)F)cc2)sc1CN(C)c1ccc(OCC(=O)O)c(Cl)c1 .
21

====

Target: PPARα (Homo sapiens)
Construct: PPARα (aa 167 to 469)
Sequence (Q07869 167-468 limits assumed): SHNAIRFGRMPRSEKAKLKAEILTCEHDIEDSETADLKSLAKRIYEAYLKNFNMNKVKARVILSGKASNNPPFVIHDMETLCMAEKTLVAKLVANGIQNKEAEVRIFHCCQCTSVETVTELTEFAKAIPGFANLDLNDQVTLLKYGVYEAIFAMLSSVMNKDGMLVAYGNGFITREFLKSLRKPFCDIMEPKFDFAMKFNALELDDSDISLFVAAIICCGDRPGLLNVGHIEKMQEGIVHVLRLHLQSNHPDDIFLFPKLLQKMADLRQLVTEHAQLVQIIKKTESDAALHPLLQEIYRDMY
Assay: Radioligand binding assay (SPA), PPARα receptor binding
Details: GST-PPARα-LBD fusion protein
For each of the molecules below, state its IC50.

// lookup IC50 | system=PPARα (Homo sapiens) | key= COCCCc1cc(N(C)Cc2sc(-c3ccc(C(F)(F)F)cc3)nc2C)ccc1OCC(=O)O [Example 13.10]
3960 nM

// lookup IC50 | system=PPARα (Homo sapiens) | key= Cc1cc(N(C)Cc2sc(-c3ccc(C(F)(F)F)cc3)nc2C)ccc1OCC(=O)O [Example 1.6]
1750 nM

// lookup IC50 | system=PPARα (Homo sapiens) | key= Cc1nc(-c2ccc(C(F)(F)F)cc2)sc1CN(C)c1ccc(OCC(=O)O)c(C(F)(F)F)c1 [Example 6.8]
463 nM

// lookup IC50 | system=PPARα (Homo sapiens) | key= Cc1nc(-c2ccc(C(F)(F)F)cc2)sc1CN(C)c1ccc(OCC(=O)O)c(Cl)c1 [Example 4.6]
412 nM

// lookup IC50 | system=PPARα (Homo sapiens) | key= Cc1nc(-c2ccc(C(F)(F)F)cc2)sc1CN(C)c1ccc(OCC(=O)O)c(F)c1 [Example 5.7]
1060 nM

// lookup IC50 | system=PPARα (Homo sapiens) | key= CCc1cc(N(C)Cc2sc(-c3ccc(C(F)(F)F)cc3)nc2C)ccc1OCC(=O)O [Example 7.8]
308 nM

====

For each of the compounds below, state its melting point.

Please report the recorded melting point for Cc1nc(-c2ccc(C(F)(F)F)cc2)sc1CN(C)c1ccc(OCC(=O)O)c(Cl)c1 [Example 4.6] .
149 to 150 °C (dec.)

Please report the recorded melting point for Cc1cc(NCc2sc(-c3ccc(C(F)(F)F)cc3)nc2C)ccc1OCC(=O)O [Example 18.3] .
201 to 203 °C (dec.)

Please report the recorded melting point for COc1cc(N(C)Cc2sc(-c3ccc(C(F)(F)F)cc3)nc2C)ccc1OCC(=O)O [Example 8.7] .
129 to 131 °C (dec.)

Please report the recorded melting point for CCc1cc(N(C)Cc2sc(-c3ccc(C(F)(F)F)cc3)nc2C)ccc1OCC(=O)O [Example 7.8] .
142 to 143 °C (dec.)

Please report the recorded melting point for Cc1cc(N(C)Cc2oc(-c3ccc(C(F)(F)F)cc3)nc2C)ccc1OCC(=O)O [Example 14] .
156 to 157 °C

Please report the recorded melting point for Cc1cc(N(C)Cc2sc(-c3ccc(C(F)(F)F)cc3)nc2C)ccc1OCC(=O)O [Example 1.6] .
146 to 149 °C (dec.)

Please report the recorded melting point for Cc1nc(-c2ccc(C(F)(F)F)cc2)sc1CN(C)c1ccc(OCC(=O)O)c(F)c1 [Example 5.7] .
113 to 114 °C

Please report the recorded melting point for CCN(Cc1sc(-c2ccc(C(F)(F)F)cc2)nc1C)c1ccc(OCC(=O)O)c(C)c1 [Example 19.2] .
147 to 154 °C (dec.)

Please report the recorded melting point for Cc1cc(N(C)Cc2oc(-c3ccc(C(F)(F)F)cc3)nc2C)cc(C)c1OCC(=O)O [Example 16.4] .
122 to 123 °C

Please report the recorded melting point for Cc1nc(-c2ccc(C(F)(F)F)cc2)sc1CN(C)c1ccc(OCC(=O)O)c(I)c1 [Example 20.8] .
172.5 to 173 °C

Please report the recorded melting point for Cc1nc(-c2ccc(C(F)(F)F)cc2)sc1CN(C)c1ccc(OCC(=O)O)c(C(F)(F)F)c1 [Example 6.8] .
180 to 181 °C

Please report the recorded melting point for CCN(Cc1sc(-c2ccc(C(F)(F)F)cc2)nc1C)c1cc(C)c(OCC(=O)O)c(C)c1 [Example 15.5] .
161 to 162 °C

Please report the recorded melting point for COCCCc1cc(N(C)Cc2sc(-c3ccc(C(F)(F)F)cc3)nc2C)ccc1OCC(=O)O [Example 13.10] .
142 to 143 °C

====

Biological target: PPARγ (Mus musculus, UniProt P37238)
Construct: PPARγ (aa 174 to 476)
Sequence (P37238 204-505): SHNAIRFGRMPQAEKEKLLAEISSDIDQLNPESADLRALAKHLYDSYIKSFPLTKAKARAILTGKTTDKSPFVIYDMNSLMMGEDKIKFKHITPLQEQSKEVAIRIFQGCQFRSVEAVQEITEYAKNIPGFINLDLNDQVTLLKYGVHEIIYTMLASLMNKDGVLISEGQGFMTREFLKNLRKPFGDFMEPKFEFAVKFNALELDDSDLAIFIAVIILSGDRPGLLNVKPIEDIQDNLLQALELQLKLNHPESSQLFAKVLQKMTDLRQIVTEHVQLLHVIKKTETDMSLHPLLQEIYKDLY
Test: Radioligand binding assay (SPA), PPARγ receptor binding
Settings: GST-PPARγ-LBD fusion protein
For each of the compounds below, state its IC50.

Please report the recorded IC50 for COCCCc1cc(N(C)Cc2sc(-c3ccc(C(F)(F)F)cc3)nc2C)ccc1OCC(=O)O [Example 13.10] .
> 10 µM

Please report the recorded IC50 for Cc1nc(-c2ccc(C(F)(F)F)cc2)sc1CN(C)c1ccc(OCC(=O)O)c(C(F)(F)F)c1 [Example 6.8] .
> 10 µM

Please report the recorded IC50 for Cc1nc(-c2ccc(C(F)(F)F)cc2)sc1CN(C)c1ccc(OCC(=O)O)c(Cl)c1 [Example 4.6] .
> 10 µM

Please report the recorded IC50 for CCc1cc(N(C)Cc2sc(-c3ccc(C(F)(F)F)cc3)nc2C)ccc1OCC(=O)O [Example 7.8] .
2.21 µM

Please report the recorded IC50 for Cc1nc(-c2ccc(C(F)(F)F)cc2)sc1CN(C)c1ccc(OCC(=O)O)c(F)c1 [Example 5.7] .
> 10 µM

Please report the recorded IC50 for Cc1cc(N(C)Cc2sc(-c3ccc(C(F)(F)F)cc3)nc2C)ccc1OCC(=O)O [Example 1.6] .
> 10 µM
